biological target: human MCH1 receptor (Homo sapiens); test: Radioligand competition binding with [3H]Compound 10, membranes of A293 cells; conditions: Table 3, A293 cell membranes, [3H]Compound 10 as radioligand, read-out: hMCH1 * Ki
Sequence (Q99705 whole entry): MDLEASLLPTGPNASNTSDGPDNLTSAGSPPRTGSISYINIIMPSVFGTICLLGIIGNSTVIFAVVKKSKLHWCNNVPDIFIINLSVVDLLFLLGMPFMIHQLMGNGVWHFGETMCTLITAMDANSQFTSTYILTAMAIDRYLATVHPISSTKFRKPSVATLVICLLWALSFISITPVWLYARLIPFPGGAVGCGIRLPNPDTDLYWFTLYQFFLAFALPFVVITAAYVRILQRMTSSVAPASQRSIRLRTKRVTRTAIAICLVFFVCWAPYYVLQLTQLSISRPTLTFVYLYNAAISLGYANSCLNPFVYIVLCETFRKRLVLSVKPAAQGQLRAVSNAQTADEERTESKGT
measurement-name: pKi
Formally, pKi is defined as -log10 of the concentration c, with c in mol/L.

Send back human MCH1 receptor (Homo sapiens) pKi of 2-(3,4-DIFLUOROPHENYL)4,5-DIHYDROIMIDAZOLE-1-CARBOXYLIC ACID {3-[4-PHENYL-4-(4-BROMO-5-METHYLTHIOPNEN-2-YL)]PROPYL}-AMIDE [Example 19] only. 8.52

* * *

Biological target: human GALR2 (Homo sapiens, UniProt O43603)
Construct: expressed in transfected cells
Sequence (O43603 1-387): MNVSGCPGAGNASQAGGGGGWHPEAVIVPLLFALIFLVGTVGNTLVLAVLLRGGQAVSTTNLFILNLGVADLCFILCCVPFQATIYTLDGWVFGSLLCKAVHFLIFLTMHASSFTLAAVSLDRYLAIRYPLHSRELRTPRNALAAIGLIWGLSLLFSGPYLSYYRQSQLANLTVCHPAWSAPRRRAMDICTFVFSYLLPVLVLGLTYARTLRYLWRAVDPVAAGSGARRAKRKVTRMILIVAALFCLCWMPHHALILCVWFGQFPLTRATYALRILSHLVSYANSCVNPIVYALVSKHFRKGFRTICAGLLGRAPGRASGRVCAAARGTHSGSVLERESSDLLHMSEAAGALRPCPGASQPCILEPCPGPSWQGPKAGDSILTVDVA
Assay: Radioligand binding assay, cloned receptor
Conditions: Table 2; read-out: hGALR2 Ki
measurement-name: Ki

Determine from records and report Ki for CCCCc1ccc(-c2cc(=O)[nH]c3[nH]c(=O)[nH]c(=O)c23)s1 [Example 37] > 50 µM

* * *

Biological target: human NPY1 (Homo sapiens)
Construct: expressed in transfected cells
Sequence (P25929 1-384): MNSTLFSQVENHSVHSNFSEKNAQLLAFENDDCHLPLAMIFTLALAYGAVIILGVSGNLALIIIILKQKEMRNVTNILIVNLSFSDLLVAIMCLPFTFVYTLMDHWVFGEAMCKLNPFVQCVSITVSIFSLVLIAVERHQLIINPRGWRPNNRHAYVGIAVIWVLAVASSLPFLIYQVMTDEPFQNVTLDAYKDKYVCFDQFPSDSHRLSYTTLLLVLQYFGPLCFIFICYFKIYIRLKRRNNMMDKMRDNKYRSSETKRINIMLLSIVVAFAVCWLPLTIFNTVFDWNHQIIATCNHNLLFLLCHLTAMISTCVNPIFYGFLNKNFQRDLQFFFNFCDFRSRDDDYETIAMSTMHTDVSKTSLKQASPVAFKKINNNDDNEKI
Assay: Radioligand binding assay, cloned receptor
Conditions: Table 2; read-out: hNPY1 Ki
pKi: −log10 of the molar value.
measurement-name: pKi

Give a short answer stating reported pKi for 2-(3,4-DIFLUOROPHENYL)4,5-DIHYDROIMIDAZOLE-1-CARBOXYLIC ACID {3-[4-PHENYL-4-(4-BROMO-5-METHYLTHIOPNEN-2-YL)]PROPYL}-AMIDE [Example 19] . < 4.30

* * *

biological target: human GALR2 (Homo sapiens, UniProt O43603); construct: expressed in transfected cells; assay: Radioligand binding assay, cloned receptor; settings: Table 2; read-out: hGALR2 Ki
pKi: −log10 of the molar value.
measurement-name: pKi

Please supply the value of reported pKi for the item 2-(3,4-DIFLUOROPHENYL)4,5-DIHYDROIMIDAZOLE-1-CARBOXYLIC ACID {3-[4-PHENYL-4-(4-BROMO-5-METHYLTHIOPNEN-2-YL)]PROPYL}-AMIDE [Example 19] < 4.30

* * *

Known Kb of a selection of molecules
Molecular target: human MCH1 receptor (Homo sapiens)
Assay: Functional assay: intracellular calcium mobilization (antagonist potency Kb)
Type: cell-based
Design: expressed in transfected cells; host or cells: COS-7 cells, transient, DEAE-dextran, plasmid pEXJ.HR-TL231 (ATCC 203197)
Details: Table 2; antagonist potency at the human MCH1 receptor; read-out: hMCH1 Kb
Description: Intracellular calcium mobilization assays for the MCH1 receptor were carried out using plasmid pEXJ.HR-TL231 (ATCC Accession No. 203197). COS-7 cells were transiently transfected with DNA encoding the MCH1 receptor utilizing the DEAE-dextran method as described above. The intracellular free calcium concentration was measured by fluorescent imaging using the calcium sensitive fluorscent dye Fluo-3. […]
Report the value in nM with no unit label.

| molecule | Kb [nM] |
| --- | --- |
| COCC1=C(C(=O)OC)C(c2ccc(F)c(F)c2)N(C(=O)NCCCN2CC=C(c3cccc(NC(C)=O)c3)CC2)C(=O)N1 (stereo not drawn) [Example 2] | 18 |

Indicate the recorded Kb value for this molecule: O=C(CCCN1CCC(NC(=O)c2ccccc2)CC1)c1ccc(Cl)cc1 [Example 28] 60

Return reported Kb. Input molecule: CCCCN(CCCC)c1ccc(CN2CCC(CNC(=O)N3C(=O)NC(C)=C(C(=O)OC)C3c3ccc4nonc4c3)CC2)cc1 (stereo not drawn) [Example 6] 42

Identify measured Kb corresponding to CN1CN(c2ccccc2)C2(CCN(CCCC(=O)c3ccc(F)cc3)CC2)C1=O [Example 30] 479

Name the recorded Kb of the molecule listed here: Cc1cc(O)cc(O)c1/C=N/c1ccc(-c2cn3ccccc3n2)cc1 [Example 27] 279

Identify measured Kb corresponding to Fc1ccc(C(c2ccc(F)cc2)N2CCN(C/C=C/c3ccccc3)CC2)cc1 [Example 26] 260

* * *

biological target: rat 5-HT2C receptor (Rattus norvegicus, UniProt P08909); construct: expressed in transfected cells; test: Radioligand binding assay, cloned receptor; settings: Table 3; read-out: r5HT2C Ki
Sequence (P08909 33-460): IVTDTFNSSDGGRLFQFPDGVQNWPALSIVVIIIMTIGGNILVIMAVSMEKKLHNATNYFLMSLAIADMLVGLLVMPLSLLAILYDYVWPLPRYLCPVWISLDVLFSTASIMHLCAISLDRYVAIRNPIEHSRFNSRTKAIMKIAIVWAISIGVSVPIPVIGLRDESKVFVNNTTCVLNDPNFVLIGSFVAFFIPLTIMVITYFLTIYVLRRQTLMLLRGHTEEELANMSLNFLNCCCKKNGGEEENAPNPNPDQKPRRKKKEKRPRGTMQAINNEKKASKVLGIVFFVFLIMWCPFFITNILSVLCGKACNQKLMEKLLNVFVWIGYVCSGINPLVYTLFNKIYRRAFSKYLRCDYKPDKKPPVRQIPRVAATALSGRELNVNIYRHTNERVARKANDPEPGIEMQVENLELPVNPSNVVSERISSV
measurement-name: Ki (µM)
Use µM as the unit, but write only the number.

Kindly indicate its recorded Ki. Item: 2-(3,4-DIFLUOROPHENYL)4,5-DIHYDROIMIDAZOLE-1-CARBOXYLIC ACID {3-[4-PHENYL-4-(4-BROMO-5-METHYLTHIOPNEN-2-YL)]PROPYL}-AMIDE [Example 19] 11.7

* * *

Counter-ions that a name gives are not always drawn.
measurement-name: melting point

| compound | measurement-name | recorded-value |
| --- | --- | --- |
| COCC1=C(C(=O)OC)C(c2ccc(F)c(F)c2)N(C(=O)NCCCN2CCC(OC(C)=O)(c3ccccc3)CC2)C(=O)N1 (stereo not shown) (as salt: hydrochloride) | melting point | 82 to 84 °C |
| COC(=O)C1=C(C)NC(=O)N(C(=O)NCCCN2CCC3(CC2)OCc2ccccc23)C1c1ccc(F)c(F)c1 (stereo not shown) (as salt: hydrochloride) | melting point | 178 to 182 °C |
| COC(=O)C1=C(C)NC(=O)N(C(=O)NCCCN2CCN(c3ccccc3C)CC2)C1c1ccc(F)c(F)c1 (stereo not shown) (as salt: hydrochloride) | melting point | 66 to 71 °C |

Could you now look at the following compound, please?
Specify reported melting point for the compound shown: COCC1=C(C(=O)OC)C(c2ccc(F)c(F)c2)N(C(=O)NCCCN2CCC(c3cccc4ccccc34)CC2)C(=O)N1 (single isomer, unassigned; (+)) 168 to 172 °C

* * *

Target: human GALR3 (Homo sapiens, UniProt O60755)
Construct: expressed in transfected cells
Sequence (O60755 1-368): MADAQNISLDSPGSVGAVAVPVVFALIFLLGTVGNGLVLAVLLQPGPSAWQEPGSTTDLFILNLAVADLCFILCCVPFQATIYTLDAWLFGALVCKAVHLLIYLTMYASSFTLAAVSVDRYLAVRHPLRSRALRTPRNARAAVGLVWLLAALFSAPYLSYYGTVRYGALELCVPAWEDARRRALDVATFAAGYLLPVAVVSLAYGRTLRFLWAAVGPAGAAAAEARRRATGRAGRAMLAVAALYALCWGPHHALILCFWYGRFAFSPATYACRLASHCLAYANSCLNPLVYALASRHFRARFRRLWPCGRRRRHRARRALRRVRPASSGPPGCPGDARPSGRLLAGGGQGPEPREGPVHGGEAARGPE
Assay: Radioligand binding assay, cloned receptor
Settings: Table 2; read-out: hGALR3 Ki
pKi: −log10 of the molar value.
measurement-name: pKi

State the measured pKi (human GALR3 (Homo sapiens, UniProt O60755)) of CCCCc1ccc(-c2cc(=O)[nH]c3[nH]c(=O)[nH]c(=O)c23)s1 [Example 37] < 4.30

* * *

molecular target: human NPY1 (Homo sapiens, UniProt P25929); construct: expressed in transfected cells; test: Radioligand binding assay, cloned receptor; settings: Table 3; read-out: hNPY1 Ki
measurement-name: Ki

Please tell me the measured Ki for 2-(3,4-DIFLUOROPHENYL)4,5-DIHYDROIMIDAZOLE-1-CARBOXYLIC ACID {3-[4-PHENYL-4-(4-BROMO-5-METHYLTHIOPNEN-2-YL)]PROPYL}-AMIDE [Example 19] ; system: human NPY1 (Homo sapiens, UniProt P25929). > 50 µM

Value source: patent US6720324B2
